- Tgt: human sEH (Homo sapiens (Human))
- Sequence (P34913 whole entry): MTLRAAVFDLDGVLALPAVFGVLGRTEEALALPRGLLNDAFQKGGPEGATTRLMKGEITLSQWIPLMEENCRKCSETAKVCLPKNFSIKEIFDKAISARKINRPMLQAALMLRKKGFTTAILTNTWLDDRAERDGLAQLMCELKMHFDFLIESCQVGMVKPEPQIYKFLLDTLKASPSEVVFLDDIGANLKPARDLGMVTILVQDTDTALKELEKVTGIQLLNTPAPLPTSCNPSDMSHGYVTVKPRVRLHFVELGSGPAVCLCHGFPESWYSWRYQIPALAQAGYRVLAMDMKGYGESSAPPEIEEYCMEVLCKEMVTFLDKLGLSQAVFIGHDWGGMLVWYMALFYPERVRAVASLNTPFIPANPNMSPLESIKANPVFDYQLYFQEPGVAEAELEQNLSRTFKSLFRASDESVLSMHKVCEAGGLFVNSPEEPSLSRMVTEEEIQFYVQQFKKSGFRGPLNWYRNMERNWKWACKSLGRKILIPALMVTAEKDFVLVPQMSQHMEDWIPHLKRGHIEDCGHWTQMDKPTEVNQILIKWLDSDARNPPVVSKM
- Measurement description: Inhibition of human soluble epoxide hydrolase (IC50; one of three substrate methods);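 note: enzyme expressed in baculovirus and affinity-purified, assays run in triplicate, with substrate and read-out differing among the three methods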
- Type: biochemical
- Particulars: recombinant human sEH
So basically, the class depends on measured IC50, and the ranges are class 0 = under 2 nM, class 1 = from 2 nM up to 300 nM, class 2 = 300 nM and over

Q. Category of O=C(NCC1CCN(C(=O)c2ccccc2)CC1)NC12CC3CC(CC(C3)C1)C2 :
A. class 1

Q. Lab note: which band did O=C(NC1CCN(C(=O)c2ccccn2)CC1)NC12CC3CC(CC(C3)C1)C2 land in?
A. class 0

Q. Hey, which category is CS(=O)(=O)N1CCC(NC(=O)NC23CC4CC(CC(C4)C2)C3)CC1 in, do you know?
A. class 0

Q. Into which bin does this compound go? CC(C)(C)OC(=O)N1CCC(NC(=O)NC2CCCCC2)CC1
A. class 1

Q. State the band of COC(=O)c1ccccc1C(=O)N1CCC(CNC(=O)NC23CC4CC(CC(C4)C2)C3)CC1
A. class 0

Q. Given CC(=O)N1CCC(NC(=O)C23CC4CC(CC(C4)C2)C3)CC1 , name the class its IC50 places it in.
A. class 2

Q. Using the reported IC50, which band applies to Cc1ccc(S(=O)(=O)N2CCC(NC(=O)Nc3ccc(OC(F)(F)F)cc3)CC2)cc1 ?
A. class 0

Q. Assign a bin to Cc1c(COC(=O)NCc2ccncc2)cccc1-c1ccccc1
A. class 2

Q. Sort into band: O=C(O)CCC(=O)N1CCC(NC(=O)NC23CC4CC(CC(C4)C2)C3)CC1
A. class 1

Q. Band of CCCCCCCCCCCCNC(=O)NC1CCNCC1 ?
A. class 1

Q. State the class of the compound shown: O=C(NCC1CCN(C(=O)c2ccccc2C(=O)O)CC1)NC12CC3CC(CC(C3)C1)C2
A. class 2

Q. Classify this compound: O=C(NC1CCN(C(=O)c2ccccc2)CC1)NC1CCN(C(=O)c2ccccc2)CC1
A. class 1

Q. Would you mind sorting O=C(Oc1cccc(-c2ccccc2)c1)N1CCOCC1 into the appropriate category?
A. class 2

Q. # bin label for COC(=O)c1ccc(C(=O)N2CCC(NC(=O)NC34CC5CC(CC(C5)C3)C4)CC2)cc1
A. class 0

Q. Classify this compound: O=C(Nc1ccc(OC(F)(F)F)cc1)NC1CCN(C(=O)C(F)(F)F)CC1
A. class 0

Q. Assign a category based on measured IC50 for O=C(NC1CCNCC1)NC1CCNCC1 and give only the class name.
A. class 2

Q. Determine which band this compound sits in: COC(=O)c1cccc(C(=O)N2CCC(CNC(=O)NC34CC5CC(CC(C5)C3)C4)CC2)c1
A. class 1

----------
- Measurement description: Pharmacokinetic screening in dogs, oral administration, plasma LC-MS/MS
- Particulars: dogs, single oral dose (0.3 mg/kg per FIG. 1), time 300 min
Param label: returns t when LC/MS analysis, plasma level at time 300 < 6, returns f otherwise, including exact equality.

Q. Dear reviewer, please state whether CC(=O)N1CCC(NC(=O)Nc2ccc(OC(F)(F)F)cc2)CC1 has LC/MS analysis, plasma level at time 300 strictly beneath 6.
A. f

Q. For this molecule, is LC/MS analysis, plasma level at time 300 lower than 6? CCCC(=O)N1CCC(NC(=O)NC23CC4CC(CC(C4)C2)C3)CC1
A. t

Q. A record lists CCC(=O)N1CCC(NC(=O)NC23CC4CC(CC(C4)C2)C3)CC1 . Is its LC/MS analysis, plasma level at time 300 below 6?
A. f

Q. Just wondering, is LC/MS analysis, plasma level at time 300 of O=C(NC1CCN(C(=O)c2ccccn2)CC1)NC12CC3CC(CC(C3)C1)C2 below 6?
A. t

Q. Hi there! Is LC/MS analysis, plasma level at time 300 for O=C(NC1CCN(C(=O)C(F)(F)F)CC1)NC12CC3CC(CC(C3)C1)C2 below 6, do you know?
A. t

Q. Hi there! Is LC/MS analysis, plasma level at time 300 for O=C(NCC1CCN(C(=O)c2ccccc2)CC1)NC12CC3CC(CC(C3)C1)C2 below 6, do you know?
A. t

Q. Item CC(=O)N1CCC(NC(=O)NC23CC4CC(CC(C4)C2)C3)CC1 : LC/MS analysis, plasma level at time 300 beneath 6, strictly?
A. f

Q. Decide: LC/MS analysis, plasma level at time 300 of COC(=O)c1ccc(C(=O)N2CCC(NC(=O)NC34CC5CC(CC(C5)C3)C4)CC2)cc1 strictly below 6?
A. t

Q. Below 6 on LC/MS analysis, plasma level at time 300? Entry COC(=O)CCCC(=O)N1CCC(NC(=O)NC23CC4CC(CC(C4)C2)C3)CC1
A. t

Q. is_below(LC/MS analysis, plasma level at time 300, 6) for O=C(NC1CCN(C(=O)c2ccccc2)CC1)NC12CC3CC(CC(C3)C1)C2 ?
A. t

src = patent US8501783B2
